system_under_test: UniProt:Q13547
Sequence (Q13547 whole entry): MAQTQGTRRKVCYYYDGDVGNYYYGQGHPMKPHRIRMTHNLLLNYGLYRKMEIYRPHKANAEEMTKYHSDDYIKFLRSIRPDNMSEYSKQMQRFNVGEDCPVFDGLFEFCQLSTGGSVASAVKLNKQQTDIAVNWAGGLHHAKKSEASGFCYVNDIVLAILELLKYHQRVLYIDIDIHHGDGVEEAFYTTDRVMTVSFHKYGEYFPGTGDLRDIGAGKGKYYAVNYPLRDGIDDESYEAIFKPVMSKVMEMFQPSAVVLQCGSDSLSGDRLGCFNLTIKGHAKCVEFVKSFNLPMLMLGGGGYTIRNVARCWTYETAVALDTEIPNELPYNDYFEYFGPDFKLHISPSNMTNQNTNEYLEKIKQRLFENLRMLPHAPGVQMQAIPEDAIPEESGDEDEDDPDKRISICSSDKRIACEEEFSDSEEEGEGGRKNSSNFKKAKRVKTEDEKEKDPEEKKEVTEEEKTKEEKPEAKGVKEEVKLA
protocol_summary: Inhibition of HDAC1 using Fluor-de-Lys as substrate at 100 uM by spectrofluorometry
Activity calls are given as the source filed them. The rule behind the calls is not given here.
endpoint: inhibition

These solved cases illustrate the format of a correct answer.
- record_smiles: "O=C(NC(=S)NCc1ccc(C(F)(F)F)cc1)c1ccccc1"
  inhibition: "inactive"
- record_smiles: "O=C(NC(=S)NCc1ccc(-c2ccccc2)cc1)c1ccccc1"
  inhibition: "inactive"
- record_smiles: "O=C(NC(=S)NC1CCCCC1)c1ccccc1"
  inhibition: "5%"
- record_smiles: "C[C@H](NC(=S)NC(=O)c1ccccc1)c1ccccc1"
  inhibition: "inactive"
- record_smiles: "COc1cc(NC(=S)NC(=O)c2ccccc2)cc(OC)c1"
  inhibition: "inactive"

// switching to the query molecule
Please report the measured inhibition for O=C(NC(=S)NCc1cccs1)c1ccccc1
inactive

* * *

system_under_test: Histone deacetylase 2 (Homo sapiens) (UniProt Q92769)
Sequence (Q92769 whole entry): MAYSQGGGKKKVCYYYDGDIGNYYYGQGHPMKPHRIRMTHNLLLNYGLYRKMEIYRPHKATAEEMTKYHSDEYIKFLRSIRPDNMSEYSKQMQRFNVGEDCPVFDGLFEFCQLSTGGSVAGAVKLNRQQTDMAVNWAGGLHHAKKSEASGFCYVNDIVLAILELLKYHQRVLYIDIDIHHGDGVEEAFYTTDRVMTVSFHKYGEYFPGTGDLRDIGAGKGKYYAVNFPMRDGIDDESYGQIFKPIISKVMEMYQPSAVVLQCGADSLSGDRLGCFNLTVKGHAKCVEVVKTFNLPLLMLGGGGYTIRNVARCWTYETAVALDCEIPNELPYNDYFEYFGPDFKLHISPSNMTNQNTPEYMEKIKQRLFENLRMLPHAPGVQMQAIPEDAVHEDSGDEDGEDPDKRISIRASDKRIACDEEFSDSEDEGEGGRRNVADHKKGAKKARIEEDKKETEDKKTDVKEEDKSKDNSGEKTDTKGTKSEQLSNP
protocol_summary: Inhibition of HDAC2 using Fluor-de-Lys as substrate at 100 uM by spectrofluorometry
Activity calls are given as the source filed them. The rule behind the calls is not given here.
endpoint: inhibition

These solved cases illustrate the format of a correct answer.
- record_smiles: "O=C(NC(=S)NC1CCCCC1)c1ccccc1"
  result: "inactive"
- record_smiles: "C[C@@H](NC(=S)NC(=O)c1ccccc1)c1ccccc1"
  result: "6%"
- record_smiles: "O=C(NC(=S)NCc1ccccc1)c1ccccc1F"
  result: "inactive"
- record_smiles: "O=C(NC(=S)NCc1cc(C(F)(F)F)cc(C(F)(F)F)c1)c1ccccc1"
  result: "inactive"
- record_smiles: "O=C(NC(=S)NCc1ccc(C(F)(F)F)cc1)c1ccccc1"
  result: "7%"
- record_smiles: "C[C@H](NC(=S)NC(=O)c1ccccc1)c1ccccc1"
  result: "5%"
- record_smiles: "O=C(NC(=S)NCc1cccs1)c1ccccc1"
  result: "9%"
- record_smiles: "O=C(NC(=S)NCc1ccc(F)cc1)c1ccccc1"
  result: "inactive"
- record_smiles: "O=C(NC(=S)NCCc1ccccc1)c1ccccc1"
  result: "inactive"
- record_smiles: "O=C(NC(=S)Nc1ccccc1)c1ccccc1F"
  result: "inactive"

Please report the measured inhibition for O=C(NC(=S)NCc1ccc(-c2ccccc2)cc1)c1ccccc1
10%

Please report the measured inhibition for O=C(NC(=S)NCc1ccccc1)c1ccccc1
inactive

Please report the measured inhibition for O=C(NC(=S)Nc1ccccc1)c1ccccc1
8%

Please report the measured inhibition for COc1cc(NC(=S)NC(=O)c2ccccc2)cc(OC)c1
6%

* * *

system_under_test: Polyamine deacetylase HDAC10 (Homo sapiens)
Sequence (whole entry): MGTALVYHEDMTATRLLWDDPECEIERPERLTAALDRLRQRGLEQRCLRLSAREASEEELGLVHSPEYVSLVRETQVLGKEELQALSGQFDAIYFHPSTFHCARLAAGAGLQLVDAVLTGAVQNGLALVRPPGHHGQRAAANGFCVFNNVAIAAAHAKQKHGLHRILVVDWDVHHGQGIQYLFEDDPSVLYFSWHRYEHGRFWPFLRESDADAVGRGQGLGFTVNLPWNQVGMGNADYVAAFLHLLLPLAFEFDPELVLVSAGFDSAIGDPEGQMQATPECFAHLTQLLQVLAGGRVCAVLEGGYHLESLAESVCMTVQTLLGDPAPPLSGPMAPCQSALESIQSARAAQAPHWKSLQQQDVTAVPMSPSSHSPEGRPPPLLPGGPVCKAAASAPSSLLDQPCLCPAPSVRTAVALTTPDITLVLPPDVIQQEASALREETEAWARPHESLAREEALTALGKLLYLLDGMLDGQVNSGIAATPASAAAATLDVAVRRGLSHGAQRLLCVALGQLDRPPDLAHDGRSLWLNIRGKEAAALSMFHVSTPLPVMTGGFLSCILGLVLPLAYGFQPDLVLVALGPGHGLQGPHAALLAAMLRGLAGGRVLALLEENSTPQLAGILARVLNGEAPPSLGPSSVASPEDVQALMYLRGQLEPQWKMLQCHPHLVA
protocol_summary: Inhibition of HDAC10 using Fluor-de-Lys as substrate at 100 uM by spectrofluorometry
The source made the active and inactive calls. The calls are words filed in the database; no cut-off is given here.
endpoint: inhibition

These solved cases illustrate the format of a correct answer.
- record_smiles: "O=C(NC(=S)NCc1cc(C(F)(F)F)cc(C(F)(F)F)c1)c1ccccc1"
  inhibition: "10%"
- record_smiles: "O=C(NC(=S)NCc1ccc(-c2ccccc2)cc1)c1ccccc1"
  inhibition: "5%"
- record_smiles: "O=C(NC(=S)NCc1cccs1)c1ccccc1"
  inhibition: "47%"
- record_smiles: "O=C(NC(=S)NCCc1ccccc1)c1ccccc1"
  inhibition: "inactive"
- record_smiles: "COc1cc(NC(=S)NC(=O)c2ccccc2)cc(OC)c1"
  inhibition: "10%"

Please report the measured inhibition for O=C(NC(=S)NC1CCCCC1)c1ccccc1
inactive

Please report the measured inhibition for O=C(NC(=S)NCc1ccccc1)c1ccccc1
inactive

Please report the measured inhibition for O=C(NC(=S)NCc1ccc(F)cc1)c1ccccc1
inactive

Please report the measured inhibition for O=C(NC(=S)Nc1ccccc1)c1ccccc1
15%

Please report the measured inhibition for C[C@@H](NC(=S)NC(=O)c1ccccc1)c1ccccc1
5%

Please report the measured inhibition for C[C@H](NC(=S)NC(=O)c1ccccc1)c1ccccc1
10%

* * *

system_under_test: Histone deacetylase 8 (Homo sapiens) (UniProt Q9BY41)
Sequence (whole entry): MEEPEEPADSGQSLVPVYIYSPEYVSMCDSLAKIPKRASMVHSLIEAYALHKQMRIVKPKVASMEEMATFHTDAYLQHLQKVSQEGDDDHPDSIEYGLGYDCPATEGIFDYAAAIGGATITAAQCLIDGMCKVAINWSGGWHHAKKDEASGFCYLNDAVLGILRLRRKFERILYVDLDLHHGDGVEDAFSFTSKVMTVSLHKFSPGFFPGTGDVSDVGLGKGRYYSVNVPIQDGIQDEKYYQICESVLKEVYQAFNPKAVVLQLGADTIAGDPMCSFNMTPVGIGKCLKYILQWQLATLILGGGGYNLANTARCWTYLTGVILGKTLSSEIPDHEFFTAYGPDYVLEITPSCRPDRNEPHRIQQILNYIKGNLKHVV
protocol_summary: Activation of recombinant human HDAC8 assessed as ratio of the initial rate of reaction in the absence and presence of compound using Fluor-de-Lys as substrate at 10 uM by spectrofluorometry
endpoint: fold change (FC)
Returns: the value as a bare number; no unit string appended.

- record_smiles: "Cc1cc(=O)oc2cc(NC(=S)NC(=O)c3ccccc3)ccc12"
  endpoint: "fold change (FC)"
  result: 2
- record_smiles: "O=C(NC(=S)NCc1ccc(-c2ccccc2)cc1)c1ccccc1"
  endpoint: "fold change (FC)"
  result: 1.1
- record_smiles: "COc1cc(NC(=S)NC(=O)c2ccccc2)cc(OC)c1"
  endpoint: "fold change (FC)"
  result: 8.4
- record_smiles: "O=C(NC(=S)Nc1ccccc1)c1ccccc1"
  endpoint: "fold change (FC)"
  result: 12
- record_smiles: "O=C(NC(=S)NCc1ccc(F)cc1)c1ccccc1"
  endpoint: "fold change (FC)"
  result: 3
- record_smiles: "O=C(NC(=S)NCc1ccc(C(F)(F)F)cc1)c1ccccc1"
  endpoint: "fold change (FC)"
  result: 1.2

Provide Histone deacetylase 8 (Homo sapiens) (UniProt Q9BY41) fold change (FC) reading for C[C@H](NC(=S)NC(=O)c1ccccc1)c1ccccc1 .
4.5

Provide Histone deacetylase 8 (Homo sapiens) (UniProt Q9BY41) fold change (FC) reading for O=C(NC(=S)NCc1ccccc1)c1ccccc1F .
1

Provide Histone deacetylase 8 (Homo sapiens) (UniProt Q9BY41) fold change (FC) reading for O=C(NC(=S)NC1CCCCC1)c1ccccc1 .
5.6

Provide Histone deacetylase 8 (Homo sapiens) (UniProt Q9BY41) fold change (FC) reading for O=C(NC(=S)NCc1ccccc1)c1ccccc1 .
3.3

Provide Histone deacetylase 8 (Homo sapiens) (UniProt Q9BY41) fold change (FC) reading for C[C@@H](NC(=S)NC(=O)c1ccccc1)c1ccccc1 .
1.5

Provide Histone deacetylase 8 (Homo sapiens) (UniProt Q9BY41) fold change (FC) reading for O=C(NC(=S)Nc1ccccc1)c1ccccc1F .
3.5

* * *

system_under_test: Protein deacetylase HDAC6 (Homo sapiens) (UniProt Q9UBN7)
Sequence (Q9UBN7 whole entry): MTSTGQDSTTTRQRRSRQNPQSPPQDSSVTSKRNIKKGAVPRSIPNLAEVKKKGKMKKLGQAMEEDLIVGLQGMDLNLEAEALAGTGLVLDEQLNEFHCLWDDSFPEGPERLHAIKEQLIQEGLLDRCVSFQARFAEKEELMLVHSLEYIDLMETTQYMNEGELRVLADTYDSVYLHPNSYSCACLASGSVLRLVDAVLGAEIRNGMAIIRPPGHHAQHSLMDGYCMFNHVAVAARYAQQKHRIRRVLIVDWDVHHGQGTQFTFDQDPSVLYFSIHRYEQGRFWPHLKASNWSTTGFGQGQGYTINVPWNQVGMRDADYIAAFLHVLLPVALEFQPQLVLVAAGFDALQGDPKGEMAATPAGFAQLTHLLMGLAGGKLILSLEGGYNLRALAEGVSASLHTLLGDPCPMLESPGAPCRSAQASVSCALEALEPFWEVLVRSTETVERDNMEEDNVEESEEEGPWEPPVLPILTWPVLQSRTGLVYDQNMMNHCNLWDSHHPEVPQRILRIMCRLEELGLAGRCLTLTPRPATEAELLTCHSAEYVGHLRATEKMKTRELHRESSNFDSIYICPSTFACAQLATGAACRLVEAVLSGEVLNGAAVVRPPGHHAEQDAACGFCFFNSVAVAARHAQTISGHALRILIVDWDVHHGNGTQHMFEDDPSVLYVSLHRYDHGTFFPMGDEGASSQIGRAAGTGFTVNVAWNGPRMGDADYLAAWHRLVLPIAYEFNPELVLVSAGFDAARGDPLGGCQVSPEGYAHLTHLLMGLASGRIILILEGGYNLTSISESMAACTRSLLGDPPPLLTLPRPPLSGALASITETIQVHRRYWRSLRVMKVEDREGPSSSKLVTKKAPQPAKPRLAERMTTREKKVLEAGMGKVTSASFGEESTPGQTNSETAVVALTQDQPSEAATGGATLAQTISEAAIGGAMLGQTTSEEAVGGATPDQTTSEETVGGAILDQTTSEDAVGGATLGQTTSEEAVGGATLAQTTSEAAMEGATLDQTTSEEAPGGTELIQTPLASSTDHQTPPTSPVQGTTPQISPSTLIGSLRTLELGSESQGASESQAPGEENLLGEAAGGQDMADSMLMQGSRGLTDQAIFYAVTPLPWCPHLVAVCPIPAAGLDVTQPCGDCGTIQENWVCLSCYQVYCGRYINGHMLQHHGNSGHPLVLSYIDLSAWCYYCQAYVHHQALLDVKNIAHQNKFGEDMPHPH
protocol_summary: Inhibition of HDAC6 using Fluor-de-Lys as substrate at 100 uM by spectrofluorometry
Activity calls are given as the source filed them. No cut-off for these calls is given here.
endpoint: inhibition

These solved cases illustrate the format of a correct answer.
- record_smiles: "O=C(NC(=S)NC1CCCCC1)c1ccccc1"
  system_under_test: "Protein deacetylase HDAC6 (Homo sapiens) (UniProt Q9UBN7)"
  endpoint: "inhibition"
  result: "inactive"
- record_smiles: "O=C(NC(=S)NCc1ccccc1)c1ccccc1"
  system_under_test: "Protein deacetylase HDAC6 (Homo sapiens) (UniProt Q9UBN7)"
  endpoint: "inhibition"
  result: "inactive"
- record_smiles: "O=C(NC(=S)Nc1ccccc1)c1ccccc1"
  system_under_test: "Protein deacetylase HDAC6 (Homo sapiens) (UniProt Q9UBN7)"
  endpoint: "inhibition"
  result: "30%"
- record_smiles: "O=C(NC(=S)NCc1ccccc1)c1ccccc1F"
  system_under_test: "Protein deacetylase HDAC6 (Homo sapiens) (UniProt Q9UBN7)"
  endpoint: "inhibition"
  result: "inactive"
- record_smiles: "C[C@H](NC(=S)NC(=O)c1ccccc1)c1ccccc1"
  system_under_test: "Protein deacetylase HDAC6 (Homo sapiens) (UniProt Q9UBN7)"
  endpoint: "inhibition"
  result: "inactive"

Please report the measured inhibition for O=C(NC(=S)NCc1cccs1)c1ccccc1
10%

Please report the measured inhibition for O=C(NC(=S)NCc1cc(C(F)(F)F)cc(C(F)(F)F)c1)c1ccccc1
10%

Please report the measured inhibition for O=C(NC(=S)NCc1ccc(F)cc1)c1ccccc1
inactive

Please report the measured inhibition for O=C(NC(=S)NCCc1ccccc1)c1ccccc1
inactive

Please report the measured inhibition for O=C(NC(=S)NCc1ccc(C(F)(F)F)cc1)c1ccccc1
inactive
